# Test system: Trypanosoma brucei Lister 427 VSG221 with APOL1 G1 recombinant protein
# experiment summary: APOL1 G1 trypanosome cell rescue assay (Example B5)
# Format: cell-based
# protocol conditions: Trypanosoma brucei, 20 h, read-out: APOL1 G1 Trypanosome Rescue EC50, Trypanosoma brucei Lister 427 VSG221 with APOL1 G1 recombinant protein, 20 hours, CellTiter-Glo; geometric mean of at least 2 assay runs; † = single assay run
measured parameter: EC50 (nM)
One number for each entry, in nM.

Sample records with EC50:
compound | EC50 [nM]
O=C1Nc2ccc(Cl)cc2C12CCN(CCOc1ccc3c(c1)CCNS3(=O)=O)CC2 | 148
CS(=O)(=O)N1CCc2cc(OCCN3CCC4(CC3)C(=O)Nc3ccc(Cl)cc34)ccc2C1 | 424
NC(=O)c1ccc(OCCN2CCC3(CC2)C(=O)Nc2ccc(Cl)cc23)cc1C(F)F | 73.8
N#Cc1ccc2c(c1)C1(CCN(CCOc3ccc4c(c3)CCN3C(=O)NCC43)CC1)C(=O)N2 (single isomer, unassigned) | 1250

Here are 3 compounds. What values of EC50 were reported for them?
1. CS(=O)(=O)c1c(F)cc(OCCN2CCC3(CC2)C(=O)Nc2ccc(C#N)cc23)cc1F
2. CC1(O)CC(n2ncc3cc(OCCN4CCC5(CC4)C(=O)Nc4ccc(Cl)cc45)cnc32)C1 (stereo not shown)
3. CC(c1ccc(OCCN2CCC3(CC2)C(=O)Nc2ccc(Cl)cc23)cc1)S(C)(=O)=O (single isomer, unassigned)

(A)
[679, 99.7, 206]

* * *

# System: Trypanosoma brucei Lister 427 VSG221 with APOL1 G1 recombinant protein
# experiment summary: APOL1 G1 trypanosome cell rescue assay (Example B5)
# Type: cell-based
# protocol conditions: Trypanosoma brucei, 20 h, read-out: APOL1 G1 Trypanosome Rescue EC50, Trypanosoma brucei Lister 427 VSG221 with APOL1 G1 recombinant protein, 20 hours, CellTiter-Glo; geometric mean of at least 2 assay runs; † = single assay run
measured parameter: pEC50
Numbers only, as −log10 of the molar value.

molecule | pEC50
CS(=O)(=O)N(CCO)c1ccc(OCCN2CCC3(CC2)C(=O)Nc2ccc(Cl)cc23)cc1 | 6.59
O=C1CCc2cc(OCCN3CCC4(CC3)C(=O)Nc3ccc(Cl)cc34)ccc2N1[C@H]1C[C@@H](O)C1 | 6.98
CS(=O)(=O)c1ccc(OCCN2CCC3(CC2)C(=O)Nc2ccc(C#N)cc23)cc1C(F)CF (single isomer, unassigned) | 6.89
O=C1Nc2ccc(Cl)cc2C12CCN(CCOc1ccc(S(=O)(=O)C3(CO)CC3)nc1)CC2 | 6.90
O=C1Nc2ccc(Cl)cc2C12CCN(CCOc1ccc3c(cnn3[C@H]3C[C@@H](O)C3)c1)CC2 | 6.72

Here are 2 molecules. What values of pEC50 were reported for them?
1. CS(=O)(=O)C1(c2ccc(OCCN3CCC4(CC3)C(=O)N(CC(F)(F)F)c3ccc(Cl)cc34)cc2)COC1
2. CS(=O)(=O)NC1CN(C(=O)c2ccc(OCCN3CCC4(CC3)C(=O)Nc3ccc(Cl)cc34)cc2F)C1

(A)
1: 6.32; 2: 6.71

* * *

# Tested on: HEK293 cells overexpressing APOL1 G2
# experiment summary: APOL1 G2 HEK293 cell rescue assay (reversal of cell death caused by overexpression of APOL1)
# Type: cell-based
# protocol conditions: Homo sapiens, HEK293, HEK293 overexpressing APOL1 G2; geometric mean of at least 2 assay runs; † = single assay run
Task for the reader: assign each of the following compounds its reported pEC50.
Give bare numbers, as −log10 of the molar value.

compound | measured target | pEC50
O=C1Nc2ccc(Cl)cc2C12CCN(CCOc1cnc(N3CC4(C3)CS(=O)(=O)C4)nc1)CC2 | HEK293 cells overexpressing APOL1 G2 | 6.87
CC(C)n1ncc2cc(OCCN3CCC4(CC3)C(=O)Nc3ccc(Cl)cc34)ccc21 | HEK293 cells overexpressing APOL1 G2 | 6.95
O=C1CCc2cc(OCCN3CCC4(CC3)C(=O)Nc3ccc(Cl)cc34)cnc2N1[C@H]1C[C@@H](CO)C1 (single isomer, unassigned) | HEK293 cells overexpressing APOL1 G2 | 7.38
C[C@@H](COc1ccc(S(C)(=O)=O)c(C(F)F)c1)N1CCC2(CC1)C(=O)Nc1ccc(C#N)cc12 (single isomer, unassigned) | HEK293 cells overexpressing APOL1 G2 | 7.09
CC1(O)CC(n2ncc3cc(OCCN4CCC5(CC4)C(=O)Nc4ccc(C#N)cc45)cnc32)C1 (stereo not shown) | HEK293 cells overexpressing APOL1 G2 | 7.10
CS(=O)(=O)N1CCc2cc(OCCN3CCC4(CC3)C(=O)Nc3ccc(Cl)cc34)ccc2C1 | HEK293 cells overexpressing APOL1 G2 | 6.85

--- query ---
(Q) Recorded pEC50 of CC(COc1ccc(S(C)(=O)=O)cc1)N1CCC2(CC1)C(=O)Nc1ccccc12 (stereo not shown) , please.
(A) 6.10
